assay-summary: Metabolic stability assessment in mini pig liver microsomes
Format: in vitro ADME
study-conditions: pH 7.4, PLMs, UGT incubation system, toddalolactone 20 μM, 0-90 min, read-out: T1/2 value
outcome-measure: half-life at 20 μM
# output: numeric value plus its unit

Query: Find the measured half-life at 20 μM of COc1cc2oc(=O)ccc2c(OC)c1C[C@@H](O)C(C)(C)O [toddalolactone] and report it.
Reply: 1.42 h

====

assay-summary: Metabolic stability assessment in rabbit liver microsomes
Type: in vitro ADME
study-conditions: pH 7.4, RAMs, CYP incubation system, toddalolactone 20 μM, 0-90 min, read-out: half-life value (T1/2)
outcome-measure: half-life at 20 μM (h)
Response body: numeric value in h, unit text excluded.

Query: Find the measured half-life at 20 μM of COc1cc2oc(=O)ccc2c(OC)c1C[C@@H](O)C(C)(C)O [toddalolactone] and report it.
Reply: 6.78

====

assay-summary: Enzyme kinetics of toddalolactone metabolism in rat liver microsomes (oxidative metabolism and glucuronidation)
Format: in vitro ADME
study-conditions: rat, liver microsomes, pH 7.4, RLMs; P450-catalyzed oxidation; P4 formation; Vmax/Km
outcome-measure: microsomal CLint
# output: numeric value plus its unit

Query: Find the measured microsomal CLint of COc1cc2oc(=O)ccc2c(OC)c1C[C@@H](O)C(C)(C)O [toddalolactone] and report it.
Reply: 1.31 µL/min/mg

====

assay-summary: Metabolic stability assessment in rabbit liver microsomes
Assay type: in vitro ADME
study-conditions: pH 7.4, RAMs, UGT incubation system, toddalolactone 20 μM, 0-90 min, read-out: T1/2 value
outcome-measure: half-life at 20 μM
# output: numeric value plus its unit

Query: Find the measured half-life at 20 μM of COc1cc2oc(=O)ccc2c(OC)c1C[C@@H](O)C(C)(C)O and report it.
Reply: 2.07 h

====

assay-summary: Metabolic stability assessment in human liver microsomes (CYP and UGT incubation systems)
Format: in vitro ADME
study-conditions: pH 7.4, HLMs, CYP incubation system, toddalolactone 20 μM, 0-90 min, read-out: half-life value (T1/2)
outcome-measure: half-life at 20 μM (h)
Response body: numeric value in h, unit text excluded.

Query: Find the measured half-life at 20 μM of COc1cc2oc(=O)ccc2c(OC)c1C[C@@H](O)C(C)(C)O and report it.
Reply: 11.2

====

assay-summary: Enzyme kinetics of toddalolactone metabolism in rabbit liver microsomes (oxidative metabolism and glucuronidation)
Type: in vitro ADME
study-conditions: rabbit, liver microsomes, pH 7.4, RAMs; P450-catalyzed oxidation; P2 formation; Vmax/Km
outcome-measure: microsomal CLint (µL/min/mg)
Response body: numeric value in µL/min/mg, unit text excluded.

Query: Find the measured microsomal CLint of COc1cc2oc(=O)ccc2c(OC)c1C[C@@H](O)C(C)(C)O [toddalolactone] and report it.
Reply: 0.26

====

assay-summary: Metabolic stability assessment in mini pig liver microsomes
Assay type: in vitro ADME
study-conditions: pH 7.4, PLMs, CYP incubation system, toddalolactone 20 μM, 0-90 min, read-out: half-life value (T1/2)
outcome-measure: half-life at 20 μM (h)
Response body: numeric value in h, unit text excluded.

Query: Find the measured half-life at 20 μM of COc1cc2oc(=O)ccc2c(OC)c1C[C@@H](O)C(C)(C)O [toddalolactone] and report it.
Reply: 5.12

====

assay-summary: Metabolic stability assessment in monkey liver microsomes
Assay type: in vitro ADME
study-conditions: pH 7.4, MLMs, CYP incubation system, toddalolactone 20 μM, 0-90 min, read-out: half-life value (T1/2)
outcome-measure: half-life at 20 μM (h)
Response body: numeric value in h, unit text excluded.

Query: Find the measured half-life at 20 μM of COc1cc2oc(=O)ccc2c(OC)c1C[C@@H](O)C(C)(C)O and report it.
Reply: 4.08
